// provenance: patent US20230135894A1

Below, each entry is listed alongside its reported Dmax.
- assayedSystem: MK2 (Homo sapiens, UniProt P49137)
- Sequence (P49137 whole entry): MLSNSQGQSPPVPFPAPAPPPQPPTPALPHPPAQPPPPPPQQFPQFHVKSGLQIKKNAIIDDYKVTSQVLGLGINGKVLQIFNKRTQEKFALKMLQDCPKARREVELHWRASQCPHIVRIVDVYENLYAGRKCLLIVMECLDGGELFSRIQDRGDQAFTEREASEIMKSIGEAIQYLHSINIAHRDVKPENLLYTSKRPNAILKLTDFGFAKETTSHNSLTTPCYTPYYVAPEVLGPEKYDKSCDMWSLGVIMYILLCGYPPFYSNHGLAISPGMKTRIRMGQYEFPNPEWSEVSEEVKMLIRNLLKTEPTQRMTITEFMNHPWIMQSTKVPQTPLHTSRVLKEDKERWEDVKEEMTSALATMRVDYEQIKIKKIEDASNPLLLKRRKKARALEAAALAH
- procedureSummary: MK2 degradation in human THP-1 monocytic cells (MSD, 24 h)
- Format: cell-based
- Parameters: endogenous in cells
- testContext: THP-1, THP-1 cells
- Description: MK2 Degradation in Human THP-1 Monoctyic Cells […] After 3 more washes, the secondary detection antibody (SULFO-Tag anti rabbit antibody R32AB-5) was added at a final concentration of 1 microgram per ml at 25 microlitres per well and shaken at room temperature for 1 hour at 600 rpm. After 3 more washes, the 1×MSD (diluted from 5× concentrate with water) reading buffer was added at 150 microlitres per well and read on the MSD instrument Meso Sector S 600. […]

Worked examples, 2 molecules total:
Returns the measured Dmax for the input molecule. Input: C[C@@H]1CNc2c(sc3ccc4nc(-c5ccc(N6CCN(CC7CCN(c8ccc(C9CCC(=O)NC9=O)cc8)CC7)CC6)nc5)ccc4c23)C(=O)N1 (stereo partly drawn) [Compound I-421]
> 75%

So what's the measured Dmax for this one? Cn1c(=O)n(C2CCC(=O)NC2=O)c2ccc(N3CC(CN4CCN(c5ccc(-c6cc(-c7cc8c([nH]7)CCNC8=O)ccn6)c(F)c5)CC4)C3)cc21 (stereo not drawn) [Compound I-423]
> 75%

Continuing:
Item C[C@@H]1CNc2c(sc3ccc4nc(-c5ccc(N6CCN(C[C@H]7C[C@@H](c8ccc9c(c8)n(C)c(=O)n9C8CCC(=O)NC8=O)C7)CC6)cc5)ccc4c23)C(=O)N1 (stereo partly drawn) [Compound I-221] has what recorded Dmax?
> 75%
